These entries and their values trace back to patent US20220267464A1.

Documented pKd across a set of binders
Biological target: T1, hu N(A2-B2)A-avi-His (human, biotin on the avi tag where used biotinylated)
T1 construct: chimeric soluble antigen; also called hu N(A2-B2)A-avi-His B; human CEA (A2 domain)
T1 chain: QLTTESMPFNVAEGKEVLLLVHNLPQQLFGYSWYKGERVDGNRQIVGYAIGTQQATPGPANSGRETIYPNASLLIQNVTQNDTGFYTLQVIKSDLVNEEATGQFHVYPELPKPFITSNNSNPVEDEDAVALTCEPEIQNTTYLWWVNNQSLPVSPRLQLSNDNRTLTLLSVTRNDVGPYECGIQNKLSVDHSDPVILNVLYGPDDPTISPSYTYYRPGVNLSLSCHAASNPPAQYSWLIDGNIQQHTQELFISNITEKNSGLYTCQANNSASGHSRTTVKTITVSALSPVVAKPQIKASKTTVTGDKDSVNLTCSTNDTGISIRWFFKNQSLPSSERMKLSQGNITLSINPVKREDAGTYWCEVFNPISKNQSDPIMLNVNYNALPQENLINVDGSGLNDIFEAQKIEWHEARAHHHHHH
Assay: SPR (Biacore T200), antigen on CM5 chip, Fab as analyte
The meaning of pKd here: minus log10 of the concentration in molar units.

Worked cases, answers included:
>  <BINDER>
P1AE4139 (Fab, V domains shown, Fab fragment; also called Fab derived from P1AE2176) VH: EVQLLESGGGLVQPGGSLRLSCAASGFTFTDYYMNWVRQAPGKGLEWVGFIGNKANGYTTEYSASVKGRFTISRDNSKNTLYLQMNSLRAEDTAVYYCTRDRGLRFYFDYWGQGTTVTVSS VL: EIVLTQSPATLSLSPGERATLSCRASSSVTYIHWYQQKPGSSPKSWIYATSNLASGIPARFSGSGSGTDFTLTISSLEPEDFAVYYCQHWSSKPPTFGQGTKLEIK

>  <pKd>
8.12

$$$$
>  <BINDER>
P1AE4142 (Fab, V domains shown, Fab fragment; also called Fab derived from P1AE2181) VH: EVQLLESGGGLVQPGGSLRLSCAASGFTFTDYYMNWVRQAPGKGLEWVGFIGNKANGYTTEYSASVKGRFTISRDKSKNTLYLQMNSLRAEDTAVYYCARDRGLRFYFDYWGQGTTVTVSS VL: EIVLTQSPATLSLSPGERATLSCRASSSVTYIHWYQQKPGSSPKSWIYATSNLASGIPARFSGSGSGTDFTLTISSLEPEDFAVYYCQHWSSKPPTFGQGTKLEIK

>  <pKd>
8.58

$$$$

Enquiry: Give pKd for P1AE4135 (Fab, V domains shown, Fab fragment; also called Fab derived from P1AE2164) VH: EVQLLESGGGLVQPGGSLRLSCAASGFTFTDYYMNWVRQAPGKGLEWLGFIGNKANGYTTEYSASVKGRFTISRDKSKNTLYLQMNSLRAEDTATYYCTRDRGLRFYFDYWGQGTTVTVSS VL: QTVLTQSPATLSLSPGERATLSCRASSSVTYIHWYQQKPGSSPKSWIYATSNLASGIPARFSGSGSGTDYTLTISSLEPEDFAVYYCQHWSSKPPTFGQGTKLEIK
Return: 8.77
